Experiment: Distribution coefficient, logD of compound at pH 7.4
Format: physicochemical
Settings: octanol/water
Decision: logD >= 2 yields Met, all other cases yield Not met.

# count of solved cases: 3
CNS(=O)(=O)N1CC[C@](C)(N2CCc3c(-c4cnc(N)nc4)nc(N4CCOCC4)nc32)C1
Not met
CC(C)(C)OC(=O)N1CC[C@](CO)(Nc2cc(-c3cnc(N)nc3)nc(N3CCOCC3)n2)C1
Met
CS(=O)(=O)N1CC[C@](CO)(Nc2cc(-c3cnc(N)nc3)nc(N3CCOCC3)n2)C1
Not met

Ask: Decide: logD of CS(=O)(=O)N1CC[C@H](N2CCc3c(-c4cnc(N)nc4)nc(N4CCOCC4)nc32)C1 >= 2?
Result: Not met

Ask: And then COC(=O)N1CC[C@](CO)(Nc2cc(-c3cnc(N)nc3)nc(N3CCOCC3)n2)C1 , what is it?
Result: Not met
